- PROTOCOL_TEXT: clinical
- STATED_CONDITIONS: human, plasma, 40 mg
REPORTED_METRIC: Cmax (ng/mL)
Output spec: scalar in ng/mL, unitless text.

Given `C#CCN(Cc1cc2c(=O)[nH]c(C)nc2cc1C)c1ccc(C(=O)N[C@@H](CCc2nnn[nH]2)C(=O)O)c(F)c1` , state its recorded Cmax.
7260

Ref: paper PMC2361661
